# System: P. aeruginosa PAO1 GFP
# Assay name: MBIC, prevention of biofilm formation, GFP fluorescence method
# Assay type: cell-based, Pseudomonas aeruginosa
# Condition set: Table 2, BM2 medium, mean of three biological replicates
Residues, ends and D or L forms follow the SMILES beside them.
Reported property: MBIC at 488 and 530 nm LD90 (µmol/L)
Answer with a number only, understood to be in µmol/L.

- Compound: "CC(C)C[C@H](NC(=O)[C@H](Cc1ccccc1)NC(=O)[C@H](C)NC(=O)[C@H](Cc1c[nH]c2ccccc12)NC(=O)[C@H](Cc1c[nH]c2ccccc12)NC(=O)[C@H](Cc1c[nH]c2ccccc12)NC(=O)[C@H](C)NC(=O)[C@H](Cc1ccccc1)NC(=O)[C@H](CCCCN)NC(=O)[C@H](CCCCN)NC(=O)[C@@H](N)C(C)C)C(=O)N[C@@H](CCCCN)C(=O)N[C@@H](CCCCN)C(N)=O [Tritrp-P59A-Lys] (H-VKKFAWWWAFLKK-NH2)"
  Quantity unit: "µmol/L"
  Observed result: 4

Okay, now this compound:
I am curious: what MBIC at 488 and 530 nm LD90 value has been reported for CC(C)C[C@H](NC(=O)[C@H](Cc1ccccc1)NC(=O)[C@@H]1CCCN1C(=O)[C@H](Cc1c[nH]c2ccccc12)NC(=O)[C@H](Cc1c[nH]c2ccccc12)NC(=O)[C@H](Cc1c[nH]c2ccccc12)NC(=O)[C@@H]1CCCN1C(=O)[C@H](Cc1ccccc1)NC(=O)[C@H](CCCNC(=N)N)NC(=O)[C@H](CCCNC(=N)N)NC(=O)[C@@H](N)C(C)C)C(=O)N[C@@H](CCCNC(=N)N)C(=O)N[C@@H](CCCNC(=N)N)C(N)=O [Tritrp-Arg] ?
8

----------
Catalogue of MIC at 600 nm LD50 values
# System: P. aeruginosa PAO1 GFP
# Assay name: MIC against planktonic cells, absorbance at 600 nm
# Type: cell-based, Pseudomonas aeruginosa
# Condition set: Table 2, BM2 medium, absorbance 600 nm, mean of three biological replicates
Residues, ends and D or L forms follow the SMILES beside them.
Answer with a number only, understood to be in µmol/L.

Below are worked cases with known answers.
- Compound: "N=C(N)NCCC[C@H](NC(=O)[C@H](Cc1c[nH]c2ccccc12)NC(=O)[C@H](Cc1c[nH]c2ccccc12)NC(=O)[C@H](Cc1c[nH]c2ccccc12)NC(=O)[C@H](CCCNC(=N)N)NC(=O)[C@@H](N)CCCNC(=N)N)C(N)=O [RRWWWR-NH2] (H-RRWWWR-NH2)"
  Tested on: "P. aeruginosa PAO1 GFP"
  Quantity unit: "µmol/L"
  MIC at 600 nm LD50: 64
- Compound: "CC(C)[C@H](NC(=O)[C@@H]1CCCN1C(=O)[C@@H](N)Cc1ccccc1)C(=O)N[C@H](C(=O)N[C@@H](Cc1c[nH]c2ccccc12)C(=O)N[C@@H](CCCNC(=N)N)C(=O)N[C@@H](Cc1c[nH]c2ccccc12)C(=O)N[C@@H](Cc1c[nH]c2ccccc12)C(=O)N[C@@H](CCCNC(=N)N)C(=O)N[C@@H](Cc1c[nH]c2ccccc12)C(=O)N[C@@H](Cc1c[nH]c2ccccc12)C(=O)N[C@@H](CCCNC(=N)N)C(=O)NCC(N)=O)[C@@H](C)O [PuroA-Arg, reference compound] (H-FPVTWRWWRWWRG-NH2)"
  Tested on: "P. aeruginosa PAO1 GFP"
  Quantity unit: "µmol/L"
  MIC at 600 nm LD50: 8
- Compound: "CC[C@H](C)[C@H](N)C(=O)N[C@@H](CC(C)C)C(=O)N1CCC[C@H]1C(=O)N[C@@H](Cc1c[nH]c2ccccc12)C(=O)N[C@@H](CCCCN)C(=O)N[C@@H](Cc1c[nH]c2ccccc12)C(=O)N1CCC[C@H]1C(=O)N[C@@H](Cc1c[nH]c2ccccc12)C(=O)N[C@@H](Cc1c[nH]c2ccccc12)C(=O)N1CCC[C@H]1C(=O)N[C@@H](Cc1c[nH]c2ccccc12)C(=O)N[C@@H](CCCNC(=N)N)C(=O)N[C@@H](CCCNC(=N)N)C(N)=O [Indolicidin, reference compound]"
  Tested on: "P. aeruginosa PAO1 GFP"
  Quantity unit: "µmol/L"
  MIC at 600 nm LD50: 8
- Compound: "CC(C)C[C@H](NC(=O)[C@H](Cc1ccccc1)NC(=O)[C@H](C)NC(=O)[C@H](Cc1c[nH]c2ccccc12)NC(=O)[C@H](Cc1c[nH]c2ccccc12)NC(=O)[C@H](Cc1c[nH]c2ccccc12)NC(=O)[C@@H]1CCCN1C(=O)[C@H](Cc1ccccc1)NC(=O)[C@H](CCCNC(=N)N)NC(=O)[C@H](CCCNC(=N)N)NC(=O)[C@@H](N)C(C)C)C(=O)N[C@@H](CCCNC(=N)N)C(=O)N[C@@H](CCCNC(=N)N)C(N)=O [Tritrp-P9A] (H-VRRFPWWWAFLRR-NH2)"
  Tested on: "P. aeruginosa PAO1 GFP"
  Quantity unit: "µmol/L"
  MIC at 600 nm LD50: 2

I am curious: what MIC at 600 nm LD50 value has been reported for CC(C)C[C@H](NC(=O)[C@H](Cc1ccccc1)NC(=O)[C@@H]1CCCN1C(=O)[C@H](Cc1c[nH]c2ccccc12)NC(=O)[C@H](Cc1c[nH]c2ccccc12)NC(=O)[C@H](Cc1c[nH]c2ccccc12)NC(=O)[C@H](C)NC(=O)[C@H](Cc1ccccc1)NC(=O)[C@H](CCCNC(=N)N)NC(=O)[C@H](CCCNC(=N)N)NC(=O)[C@@H](N)C(C)C)C(=O)N[C@@H](CCCNC(=N)N)C(=O)N[C@@H](CCCNC(=N)N)C(N)=O [Tritrp-P5A] (H-VRRFAWWWPFLRR-NH2) ?
4

----------
# Test system: P. aeruginosa PAO1
# Assay type: cell-based, Pseudomonas aeruginosa
# Condition set: Table 5; PAO1, 1x BM2; biofilms on pegs, cells plated and counted; three biological replicates
Residues, ends and D or L forms follow the SMILES beside them.
Catalogue of MBEC from Calgary Biofilm Device (CBD) LD90 values
# answer = value followed by unit

- Compound: "CC[C@H](C)[C@H](N)C(=O)N[C@@H](CC(C)C)C(=O)N1CCC[C@H]1C(=O)N[C@@H](Cc1c[nH]c2ccccc12)C(=O)N[C@@H](CCCCN)C(=O)N[C@@H](Cc1c[nH]c2ccccc12)C(=O)N1CCC[C@H]1C(=O)N[C@@H](Cc1c[nH]c2ccccc12)C(=O)N[C@@H](Cc1c[nH]c2ccccc12)C(=O)N1CCC[C@H]1C(=O)N[C@@H](Cc1c[nH]c2ccccc12)C(=O)N[C@@H](CCCNC(=N)N)C(=O)N[C@@H](CCCNC(=N)N)C(N)=O [Indolicidin, reference compound]"
  Observed result: "128 µmol/L"

Okay, now this compound:
I am curious: what MBEC from Calgary Biofilm Device (CBD) LD90 value has been reported for CC(C)[C@H](NC(=O)[C@@H]1CCCN1C(=O)[C@@H](N)Cc1ccccc1)C(=O)N[C@H](C(=O)N[C@@H](Cc1c[nH]c2ccccc12)C(=O)N[C@@H](CCCNC(=N)N)C(=O)N[C@@H](Cc1c[nH]c2ccccc12)C(=O)N[C@@H](Cc1c[nH]c2ccccc12)C(=O)N[C@@H](CCCNC(=N)N)C(=O)N[C@@H](Cc1c[nH]c2ccccc12)C(=O)N[C@@H](Cc1c[nH]c2ccccc12)C(=O)N[C@@H](CCCNC(=N)N)C(=O)NCC(N)=O)[C@@H](C)O [PuroA-Arg, reference compound] (H-FPVTWRWWRWWRG-NH2) ?
64 µmol/L

----------
# System: P. aeruginosa PAO1 GFP
# Assay name: MIC against planktonic cells, absorbance at 600 nm
# Assay type: cell-based, Pseudomonas aeruginosa
# Condition set: Table 2, BM2 medium, absorbance 600 nm, mean of three biological replicates
# Method: Figure 1 The MIC (A), MBIC (B) and MBEC (C) values for the tritrpticin analog peptides were assessed against Pa PAO1 GFP. The MIC values were determined by measuring the absorbance of bacterial cells at 600 nm. The MBIC and MBEC values were determined by recording the fluorescence at 480 nm and 530 nm from the biofilms of GFP-expressing PAO1. Three biological replicates were run for each test sample, and the mean was calculated for the recorded absorption or fluorescence values. […]
Residues, ends and D or L forms follow the SMILES beside them.
Reported property: MIC at 600 nm LD50 (µM)
Answer with a number only, understood to be in µM.

- Molecule: "CC(C)C[C@H](NC(=O)[C@H](Cc1ccccc1)NC(=O)[C@@H]1CCCN1C(=O)[C@H](Cc1ccccc1)NC(=O)[C@H](Cc1ccccc1)NC(=O)[C@H](Cc1ccccc1)NC(=O)[C@@H]1CCCN1C(=O)[C@H](Cc1ccccc1)NC(=O)[C@H](CCCNC(=N)N)NC(=O)[C@H](CCCNC(=N)N)NC(=O)[C@@H](N)C(C)C)C(=O)N[C@@H](CCCNC(=N)N)C(=O)N[C@@H](CCCNC(=N)N)C(N)=O [Tritrp-W678F] (H-VRRFPFFFPFLRR-NH2)"
  MIC at 600 nm LD50, µM: 32
- Molecule: "N=C(N)NCCC[C@H](NC(=O)[C@H](CCCNC(=N)N)NC(=O)[C@@H](N)CCCNC(=N)N)C(=O)N[C@@H](Cc1c[nH]c2ccccc12)C(=O)N[C@@H](Cc1c[nH]c2ccccc12)C(=O)N[C@@H](Cc1c[nH]c2ccccc12)C(N)=O [RRRWWW-NH2] (H-RRRWWW-NH2)"
  MIC at 600 nm LD50, µM: 32
- Molecule: "CC(C)C[C@H](NC(=O)[C@H](Cc1ccccc1)NC(=O)[C@H](C)NC(=O)[C@H](Cc1c[nH]c2ccccc12)NC(=O)[C@H](Cc1c[nH]c2ccccc12)NC(=O)[C@H](Cc1c[nH]c2ccccc12)NC(=O)[C@H](C)NC(=O)[C@H](Cc1ccccc1)NC(=O)[C@H](CCCCN)NC(=O)[C@H](CCCCN)NC(=O)[C@@H](N)C(C)C)C(=O)N[C@@H](CCCCN)C(=O)N[C@@H](CCCCN)C(N)=O [Tritrp-P59A-Lys] (H-VKKFAWWWAFLKK-NH2)"
  MIC at 600 nm LD50, µM: 4
- Molecule: "CC(C)C[C@H](NC(=O)[C@H](Cc1ccccc1)NC(=O)[C@H](C)NC(=O)[C@H](Cc1c[nH]c2ccccc12)NC(=O)[C@H](Cc1c[nH]c2ccccc12)NC(=O)[C@H](Cc1c[nH]c2ccccc12)NC(=O)[C@H](C)NC(=O)[C@H](Cc1ccccc1)NC(=O)[C@H](CCCNC(=N)N)NC(=O)[C@H](CCCNC(=N)N)NC(=O)[C@@H](N)C(C)C)C(=O)N[C@@H](CCCNC(=N)N)C(=O)N[C@@H](CCCNC(=N)N)C(N)=O [Tritrp-P59A] (H-VRRFAWWWAFLRR-NH2)"
  MIC at 600 nm LD50, µM: 2

Okay, now this molecule:
I am curious: what MIC at 600 nm LD50 value has been reported for CC(C)C[C@H](NC(=O)[C@H](Cc1ccccc1)NC(=O)[C@@H]1CCCN1C(=O)[C@H](Cc1c[nH]c2ccccc12)NC(=O)[C@H](Cc1c[nH]c2ccccc12)NC(=O)[C@H](Cc1c[nH]c2ccccc12)NC(=O)[C@@H]1CCCN1C(=O)[C@H](Cc1ccccc1)NC(=O)[C@H](CCCCN)NC(=O)[C@H](CCCCN)NC(=O)[C@@H](N)C(C)C)C(=O)N[C@@H](CCCCN)C(=O)N[C@@H](CCCCN)C(N)=O [Tritrp-Lys] (H-VKKFPWWWPFLKK-NH2) ?
32

Numbers sourced from paper PMC11858513.
